Assay Target: T1, recombinant cyno ENTPD2 extracellular domain (residues 29-462) with C-terminal Avi-His6 tag (cynomolgus macaque, UniProt Q9Y5L3 29-462 (human entry))
T1 construct: also called cynomologus (cyno) ENTPD2 ECD
T1 chain (part 1 of 2): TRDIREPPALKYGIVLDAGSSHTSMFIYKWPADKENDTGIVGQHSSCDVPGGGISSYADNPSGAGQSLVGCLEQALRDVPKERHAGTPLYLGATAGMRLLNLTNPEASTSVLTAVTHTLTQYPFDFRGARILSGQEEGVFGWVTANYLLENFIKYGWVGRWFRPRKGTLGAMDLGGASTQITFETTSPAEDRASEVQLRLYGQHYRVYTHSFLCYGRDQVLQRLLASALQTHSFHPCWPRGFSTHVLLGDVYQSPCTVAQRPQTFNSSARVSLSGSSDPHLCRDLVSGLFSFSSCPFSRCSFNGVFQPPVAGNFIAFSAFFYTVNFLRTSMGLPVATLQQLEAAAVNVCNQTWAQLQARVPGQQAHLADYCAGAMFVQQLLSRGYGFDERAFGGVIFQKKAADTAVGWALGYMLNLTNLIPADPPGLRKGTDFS
T1 chain (part 2 of 2): HHHHHH
Protocol Summary: SPR Biacore, mAb captured, ECD analyte, 25C
Experimental Readout: koff (s⁻¹)
Entry rule: numbers only, all in s⁻¹.

Problem: Requested field: koff. Item: ANTI-HUMAN ENTPD2 MAB8 (antibody, human IgG1, lambda, V domains shown, also called Anti-ENTPD2 mAb8) VH: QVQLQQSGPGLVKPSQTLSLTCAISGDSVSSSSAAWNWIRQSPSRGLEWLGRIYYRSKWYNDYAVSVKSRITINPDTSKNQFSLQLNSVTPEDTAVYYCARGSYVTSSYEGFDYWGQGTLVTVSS VL: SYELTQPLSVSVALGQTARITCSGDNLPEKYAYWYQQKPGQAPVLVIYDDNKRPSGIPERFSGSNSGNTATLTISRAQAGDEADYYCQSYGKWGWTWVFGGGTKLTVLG
Result: 0.024
